target: human Na,K-ATPase α2β2FXYD1 (Homo sapiens (Human), UniProt P50993); assay type: biochemical; details: read-out: Ki in nM ± SEM α2β2
Property: Ki; scope: individual compounds
MEASURED ENDPOINT: Ki (nM)

COMPOUND	MEASURED ENDPOINT	READOUT UNIT	READING
CC1CN(CCS(C)(=O)=O)CCC(O[C@@H]2C(C)O[C@@H](OC3C(C)OC(O[C@H]4CC[C@@]5(C)C(CCC6C5CC(O)[C@]5(C)[C@@H](C7=CC(=O)OC7)CC[C@]65O)C4)C[C@@H]3O)C[C@@H]2O)O1 (stereo in doubt)	Ki	nM	31.7
CCN1CCC(O[C@@H]2[C@H](C)O[C@@H](O[C@@H]3[C@H](C)O[C@@H](O[C@H]4CC[C@@]5(C)C(CCC6C5C[C@H](O)[C@]5(C)[C@@H](C7=CC(=O)OC7)CC[C@]65O)C4)C[C@@H]3O)C[C@@H]2O)OC(C)C1 (stereo partly shown)	Ki	nM	16.4
CC1CN(C2CCC2)CCC(O[C@@H]2[C@H](C)O[C@@H](O[C@@H]3[C@H](C)O[C@@H](O[C@H]4CC[C@@]5(C)C(CCC6C5C[C@H](O)[C@]5(C)[C@@H](C7=CC(=O)OC7)CC[C@]65O)C4)C[C@@H]3O)C[C@@H]2O)O1 (stereo partly shown)	Ki	nM	6
CC1CN(C[Si](C)(C)C)CCC(OC2C(O)CC(OC3C(O)CC(OC4CCC5(C)C(CCC6C5CC(O)C5(C)C(C7=CC(=O)OC7)CCC65O)C4)OC3C)OC2C)O1 (stereo not shown)	Ki	nM	14.3

---

Items are presented alongside their recorded Selectivity Ki ratio α1β1/α2β1.
tested on: human Na,K-ATPase α2β1FXYD1; format: biochemical
MEASURED ENDPOINT: Selectivity Ki ratio α1β1/α2β1

COMPOUND	TARGET OR SYSTEM	MEASURED ENDPOINT	READING
CC1CN(C(C)(C)C)CCC(O[C@@H]2[C@H](C)O[C@@H](O[C@@H]3[C@H](C)O[C@@H](O[C@H]4CC[C@@]5(C)C(CCC6C5C[C@H](O)[C@]5(C)[C@@H](C7=CC(=O)OC7)CC[C@]65O)C4)C[C@@H]3O)C[C@@H]2O)O1 (stereo partly shown)	human Na,K-ATPase α2β1FXYD1	Selectivity Ki ratio α1β1/α2β1	6.2
CC1CN(C)CCC(O[C@@H]2[C@H](C)O[C@@H](O[C@@H]3[C@H](C)O[C@@H](O[C@H]4CC[C@@]5(C)C(CCC6C5C[C@H](O)[C@]5(C)[C@@H](C7=CC(=O)OC7)CC[C@]65O)C4)C[C@@H]3O)C[C@@H]2O)O1 (stereo partly shown)	human Na,K-ATPase α2β1FXYD1	Selectivity Ki ratio α1β1/α2β1	6.7
CC1CN(CC2CC(C)(C)C2)CCC(O[C@@H]2[C@H](C)O[C@@H](O[C@@H]3[C@H](C)O[C@@H](O[C@H]4CC[C@@]5(C)C(CCC6C5C[C@H](O)[C@]5(C)[C@@H](C7=CC(=O)OC7)CC[C@]65O)C4)C[C@@H]3O)C[C@@H]2O)O1 (stereo partly shown)	human Na,K-ATPase α2β1FXYD1	Selectivity Ki ratio α1β1/α2β1	3.69
CC1CN(CCS(N)(=O)=O)CCC(O[C@@H]2C(C)O[C@@H](OC3C(C)OC(O[C@H]4CC[C@@]5(C)C(CCC6C5CC(O)[C@]5(C)[C@@H](C7=CC(=O)OC7)CC[C@]65O)C4)C[C@@H]3O)C[C@@H]2O)O1 (stereo in doubt)	human Na,K-ATPase α2β1FXYD1	Selectivity Ki ratio α1β1/α2β1	7.7
